Attribution: the supplement of paper PMC8728848

- system-under-test: Man(a1-3)[Man(a1-6)]Man(a1-6)[Man(a1-3)]Man(b1-4)GlcNAc(b1-4)GlcNAc
- protocol-text: glycan array binding signal (z-score within array); higher = stronger binding
- measurement-setup: glycan notation: IUPAC condensed, linker removed
The entries come from a sample that favours the strongest signals as a whole.

binder	glycan array binding signal (z-score)
rCnSL-proA (Clitocybe nebularis) (protein) AAFFSLVVLLALLPFGIHASALPSTELTPRVNPNLPGPNDVFVGFRGTNNIVGAIYEKDGIKDTPLNNGADAEMGPGSYITDGLFTARIFASGSAGNNPGTTATVCKIYASGVQWRGAPKGYIPVAYFGNGPTAEQRRQTYLRTLGLPGTAIRFGNLNTNPGQGPTAPRQMVVPPGPLRSLLKASCFPAADTRLPQTLHYFEKRVDWNIITAADSQTWGH	0.14
SP16665A-bot-344-23-344 (Bacteroides ovatus) (protein) SDNEFPDFDYQTVYFANQYGLRTIELGESEFVDNTLDNQHKMVIKAAWGGGYTNRNNVVINFKVDESLCDNLYFKDTDQPLVPMPASYYTLASDRIAIPKGQIMAGVEVQLTDDFFADEKSISENYVIPLLMTNVQGADSILQGKPVVENPVLTNAGDWSILPQNFVLYAVKYVNPWHGEYLRRGIDHATVAGTSKDIIRHEQFVENDEVVNISTKSMKDNLLTLKTKDESGKDISYTVRLSFAEDGSCTVHSGSQNVVVSGSGKFVSKGEKNSLGGKDRNAIYLDYTVNLTDNNIQLATKDTLVLRTRNVYGGKSLEVVRK	-0.618
